Reported growth values are given for each entry in this list.
System: CAKI-1 renal
Assay overview: NCI-60 one-dose screen, 48 h (100 = growth as untreated, 0 = no growth, -100 = all killed)
Measurement context: 10 µM unless noted
Protocol: Growth inhibition of the CAKI-1 human tumor cell line is measured as a screen for anti-cancer activity. Cells are grown in 96 well plates and exposed to the test compound for 48 hours. Compounds are tested at a single concentration, which is 10^-5 M for most compounds. The reported endpoint is percent growth (GI% or GIPRCNT), where numbers from 0 - 100% represent growth inhibition, and numbers from -100% - 0 represent cell death. For example, a value of 40 represents 60% growth inhibition. […]
About 83,000 compounds went through this panel and 20% of them were active in at least one assay; those are over-represented in the sample as a whole. Active and inactive are the calls of the source. How the source made its calls: active means growth percent below 10; inactive means the rest.

Molecule: CCOC(=O)/C=C(/C)Sc1cc(O)c2ccccc2c1O
growth: 46.1% (inactive)
--
Molecule: C[N+]1(CCc2ccccc2)CCC(CCC2CC[N+](C)(CCc3ccccc3)CC2)CC1 (stereo not given)
growth: 96.6% (inactive)
--
Molecule: COc1ccc(-c2cc(Cc3cccs3)c(=O)n(Cn3cncn3)n2)cc1
growth: 98.3% (inactive)
--
Molecule: COc1ccc(C2=NN(C(=O)c3cc(OC)c(OC)c(OC)c3)C(c3ccc(C#N)cc3)C2)cc1OC (stereo not given)
growth: 5.45% (active)
--
Molecule: CN(CC(=O)N(Cc1ccc(C2CCCCC2)cc1)c1ccc(C(=O)O)cc1)S(=O)(=O)c1c(F)c(F)c(F)c(F)c1F
growth: 89.9% (inactive)

**Query** Dear colleague, I am looking for the recorded growth of the following molecule: "CCCCSc1cc(C)nc(N)n1"
**Result** 97.6% (inactive)

**Query** Dear colleague, I am looking for the recorded growth of the following molecule: "NC(N)=NN=c1c(=O)c2ccccc2c1=O"
**Result** 104% (inactive)

**Query** Dear colleague, I am looking for the recorded growth of the following molecule: Cc1cc2c(cc1[N+](=O)[O-])NC(CNC(C)C)CC2 (stereo not given)
**Result** 99.7% (inactive)

**Query** Dear colleague, I am looking for the recorded growth of the following molecule: CN(CCOc1ccc(CC2SC(=O)NC2=O)cc1)c1ccccn1 (stereo not given)
**Result** 96.3% (inactive)

**Query** Dear colleague, I am looking for the recorded growth of the following molecule: COc1ccc(C2CC(c3ccc(OC)c(OC)c3)=NN2C(=O)c2cc(OC)c(OC)c(OC)c2)c(OC)c1 (stereo not given)
**Result** 34.6% (inactive)
